Item-by-item account of IC50
target: human interleukin-23 receptor (recombinant human IL-23R-Fc chimera) (Homo sapiens, UniProt Q5VWK5); construct: Fc (IgG Fc fusion); assay: Human ELISA IL23/IL23R (assay for specific human IL23R antagonists); format: binding; settings: Table 10; read-out: Human ELISA IL23/IL23R IC50
Starred links: 1 amine or outer side, 2 acyl side, 3 side chain; linkers in the order of their positions; H or OH if unused. Positions of bridges follow the written chain, without caps; N, C: chain ends. Non-standard residues stand in square brackets, D forms with d. Residues, ends and D or L forms follow the SMILES beside them. *: point of attachment. X3 = CN(CCCCC(=O)N[C@@H](CS[*:2])C(=O)[*:1])[*:3]; X1 = O=C(CCCCN[*:3])N[C@@H](CS[*:2])C(=O)[*:1]; 2Nal = N[C@@H](Cc1ccc2ccccc2c1)C(=O)O; AEF = NCCOc1ccc(C[C@H](N)C(=O)O)cc1; αMeL = CC(C)C[C@](C)(N)C(=O)O; Thp = NC1(C(=O)O)CCOCC1; Me2NCH2CH2 = CN(C)CC*; Aib = CC(C)(N)C(=O)O; Ava = NCCCCC(=O)O
Hi! Could you send only the number? It should be in nM, unit omitted.

| Compound | Assay endpoint | Unit | Result |
| --- | --- | --- | --- |
| CC(=O)N[C@H]1CCCCNC(=O)[C@@H]2CSSC[C@H](NC(=O)[C@H](CCC(N)=O)NC(=O)[C@H](Cc3c[nH]c4ccccc34)NC1=O)C(=O)N[C@@H](Cc1ccc(OCCN(C)C)cc1)C(=O)N[C@@H](Cc1ccc3ccccc3c1)C(=O)N[C@@](C)(CC(C)C)C(=O)N[C@H](C(=O)N[C@@H](CC(N)=O)C(=O)NCC(N)=O)CCC(=O)NCCCCC(=O)N2 [compound 31] (Ac-KWQCY(Me2NCH2CH2)[2Nal][αMeL]ENG-NH2; linker 1-4-8 via X1) | IC50 | nM | 0.36 |
| COc1ccc(C[C@@H]2NC(=O)[C@@H]3CSSC[C@H](NC(=O)CCCCNC(=O)CC[C@@H](C(=O)N[C@@H](CC(N)=O)C(=O)N[C@@H](CC(N)=O)C(N)=O)NC(=O)C(C)(C)NC(=O)[C@H](Cc4ccc5ccccc5c4)NC2=O)C(=O)N[C@@H](CC(N)=O)C(=O)N[C@@H]([C@@H](C)O)C(=O)N[C@@H](Cc2c[nH]c4ccccc24)C(=O)N[C@@H](CCC(N)=O)C(=O)N3)cc1 [compound 1] ([Ava]CNTWQCY(Me)[2Nal][Aib]ENN-NH2; disulfide 2-7; lactam N-11) | IC50 | nM | 0.72 |

Here is the next item to consider.
The compound listed as CC(=O)N[C@H]1CCCCNC(=O)[C@@H]2CSSC[C@H](NC(=O)[C@H](CCC(N)=O)NC(=O)[C@H](Cc3c[nH]c4ccccc34)NC1=O)C(=O)N[C@@H](Cc1ccc(OCCN)cc1)C(=O)N[C@@H](Cc1ccc3ccccc3c1)C(=O)NC1(CCOCC1)C(=O)N[C@H](C(=O)N[C@@H](C)C(=O)NCC(N)=O)CCC(=O)N(C)CCCCC(=O)N2 [compound 17] (Ac-KWQC[AEF][2Nal][Thp]EAG-NH2; linker 1-4-8 via X3) shows IC50 equal to 0.28
